# credit: PubChem BioAssay (NCI)

- Tested on: MDA-MB-231 breast
- Protocol notes: NCI tumour cell line growth inhibition, 48 h
Please provide measured log10 of TGI for the entries that follow.
Field: value | Transform: log10 | Quantity: TGI | Unit: µM

Some compounds with recorded log10 of TGI:
INSERT INTO results (compound, numeric_result) VALUES
  ('S=C(NCCNC(=S)[S][Sn]([c]1ccccc1)([c]1ccccc1)[c]1ccccc1)[S][Sn]([c]1ccccc1)([c]1ccccc1)[c]1ccccc1', -1.02),
  ('CC(C)(C)[Si](C)(C)OCC1OC(n2cc(I)c(=O)[nH]c2=O)C(O[Si](C)(C)C(C)(C)C)C1O[Si](C)(C)C(C)(C)C (stereo not given)', 1.57),
  ('Cn1c(=O)c2c(nc3sc4c(n32)C(=O)c2c(O)ccc(O)c2C4=O)n(C)c1=O', 0.72),
  ('COc1ccc2[nH]cc(C(=O)C(=O)NC34CC5CC(CC(C5)C3)C4)c2c1', 1.99),
  ('Cc1ccc(N=NC(=Nc2ccc(Cl)cc2)c2ccc(N(CCC#N)CCC#N)cc2)cc1', 1.91),
  ('CC(C)(C)[Si](C)(C)OC1[C@@H](O[Si](C)(C)C(C)(C)C)[C@@H](CNC(=O)NC(=O)CF)O[C@H]1n1cnc2c(NC(=O)Nc3ccccc3)ncnc21 (stereo not given in full)', 1.36),
  ('CC(=O)O[C@@H]1C(=O)N(c2ccccc2)[C@@H]1c1cc2ccccc2c2ccccc12', 1.88),
  ('CN(C)CCCCC(C(=O)CBr)(c1ccccc1)c1ccccc1', 0.65),
  ('CO[C@H]1C[C@H](O[C@H]2CC[C@]3(C=O)[C@H]4CC[C@]5(C)[C@@H](C6=CC(=O)OC6)CC[C@]5(O)[C@@H]4CC[C@]3(O)C2)O[C@H](C)[C@H]1O[C@@H]1O[C@H](CO)[C@@H](O)[C@H](O)[C@H]1O', -2.60),
  ('COc1cc(/C(=C2/O[C@@H]([C@H]3COC(C)(C)O3)[C@H]3OC(C)(C)O[C@@H]23)c2ccc3ccccc3c2)cc(OC)c1OC', 1.84);

State the recorded log10 of TGI for every item in the following list.
1. O=C(O)c1nc2ccc(C(F)(F)F)cc2nc1NCc1ccc(Cl)c(Cl)c1
2. Clc1ccc(C(Cc2cccc(Cl)c2)c2c(Cl)nc(N3CCNCC3)nc2Cl)cc1 (stereo not given)

[1.54, 1.42]

* * *

- System: U251 CNS
- Protocol notes: NCI tumour cell line growth inhibition, 48 h
Where a SMILES comes first, the peptide text is derived from it. Bridges are numbered along the chain shown (N, C = ends). [ ]: non-standard residue; d: D form. The star is where a group is joined. ξ: configuration not given here. ξDab(CH2SO3H) = NC(CCNCS(=O)(=O)O)C(=O)O; Heptanoyl(6-Me) = CC(C)CCCCC(=O)*; Dab = NCC[CH](N)C(=O)O
Measure: TGI

Some compounds with recorded TGI:
INSERT INTO assay_data (compound, target, measure, result) VALUES
  ('COc1ccc2c(c1)CC[C@@H]1[C@@H]2CC[C@]2(C)c3c(cc(C(=O)O)c4sccc34)C[C@@H]12', 'U251 CNS', 'TGI', '47.5 µM'),
  ('COC(=O)C1=COC(OC2OC(CO)C(O)C(O)C2O)C2C3CN4CCc5c([nH]c6ccccc56)C4(CC12)O3 (stereo unspecified)', 'U251 CNS', 'TGI', '> 100 µM'),
  ('CCC(C)C1NC(=O)C(CCNCS(=O)(=O)O)NC(=O)C(NC(=O)C(CCNCS(=O)(=O)O)NC(=O)C(NC(=O)C(CCNCS(=O)(=O)O)NC(=O)CCCCC(C)C)C(C)O)CCNC(=O)C(C(C)O)NC(=O)C(CCNCS(=O)(=O)O)NC(=O)C(CCNCS(=O)(=O)O)NC(=O)C(C(C)CC)NC1=O (stereo unspecified) ({Heptanoyl(6-Me)}-[ξDab(CH2SO3H)]T[ξDab(CH2SO3H)][Dab][ξDab(CH2SO3H)]II[ξDab(CH2SO3H)][ξDab(CH2SO3H)]T; lactam 4-C; configuration not given here)', 'U251 CNS', 'TGI', '> 25 µM'),
  ('COC(=O)c1ccccc1NC(=NC1CCCCCC1)NS(=O)(=O)c1ccc(C)cc1', 'U251 CNS', 'TGI', '> 100 µM'),
  ('COc1ccc2c(c1)oc(=O)c1cc(OC)ccc12', 'U251 CNS', 'TGI', '> 100 µM');

Next compound, please.
Request the reported TGI associated with COc1cc(C(=O)N2CCN(c3ccccc3)CC2)c2ccccc2n1 > 100 µM

* * *

- Tested on: HL-60(TB) leukemia
- Protocol notes: NCI tumour cell line growth inhibition, 48 h
Please provide measured TGI for the entries that follow.
Give bare numbers, in µM.

Some compounds with recorded TGI:
INSERT INTO results (compound, numeric_result) VALUES
  ('O=C(SC1=NCCN1)c1cccc2ccccc12', 67),
  ('N#CC1=C(c2ccccc2)C(=C2Nc3ccccc3N2)C2S/C(=C\c3ccccc3)C(=O)N2C1=N (stereo unspecified)', 6.53),
  ('COc1cc2c(cc1OC)CC(=O)Nc1cc(OC)c(OC)cc1CC2', 64.3);

Next compound, please.
Request the reported TGI associated with O=C(O)COc1ccc(C(=O)/C(SS/C(C(=O)c2ccc(OCC(=O)O)c(Cl)c2Cl)=C2\C=C(c3ccc(Cl)cc3)SS2)=C2/C=C(c3ccc(Cl)cc3)SS2)c(Cl)c1Cl 2.1

* * *

- System: A549 NSCLC
- Protocol notes: NCI tumour cell line growth inhibition, 48 h; in the data active means GI50 below about 0.43 µM; inactive means the rest
Hello, when you answer, please use one of the following outcomes: active, inactive

Check out these entries, answers already filled in.
INSERT INTO measurements (compound, cat) VALUES
  ('COc1ccc(Cn2cc3c(c2-c2ccccc2)CCc2cnoc2-3)cc1OC', 'inactive'),
  ('CCCCCCCCC/C(=N\NC(=O)c1ccncc1)c1ccc(O)c(O)c1O', 'active');

What is the recorded call for this compound in the test? CC1=CCCC2C1(C)CCC(C)C2(C)Cc1cc(O)ccc1O (centres undefined) inactive

What is the recorded call for this compound in the test? S=C(NCCNC(=S)[S][Sn]([c]1ccccc1)([c]1ccccc1)[c]1ccccc1)[S][Sn]([c]1ccccc1)([c]1ccccc1)[c]1ccccc1 active

* * *

Please provide measured TGI for the entries that follow.
- Tested on: MALME-3M melanoma
- Protocol notes: NCI tumour cell line growth inhibition, 48 h
Give bare numbers, in µM.

Some compounds with recorded TGI:
INSERT INTO assay_data (structure_smiles, target, measure, numeric_result) VALUES
  ('Cc1cc(O)cc(C)c1/C=C/c1cncc(C(N)=O)c1', 'MALME-3M melanoma', 'TGI', 24.4),
  ('Clc1ccc(Nc2ccnc(N3CCN(c4ccnc5cc(Cl)ccc45)CC3)n2)cc1', 'MALME-3M melanoma', 'TGI', 9.82),
  ('CN(C)CCCSc1nc2c(c(=N)n1-c1ccccc1)c(=S)n(-c1ccccc1)c(=S)n2-c1ccccc1', 'MALME-3M melanoma', 'TGI', 3.6);

State the recorded TGI for every item in the following list.
1. CCCCCCCCCCCCSC1=C(Cl)C(=O)C(OC)=C(OC)C1=O
2. COc1cccc(/C=N/NC(=O)c2ccccc2N2CCCC2)c1O
3. COc1ccc2c(O)c(/C=C3\N=Nc4ccccc43)oc2c1C[C@@H]1CCNC[C@H]1F
4. CCOC(=O)Cn1c(=O)c2nc(SC)sc2n(-c2ccccc2)c1=S

1. 14.2
2. 88.1
3. 22.5
4. 60.2

* * *

- System: BT-549 breast
- Protocol notes: NCI tumour cell line growth inhibition, 48 h
Class criterion met: TGI at least 30 µM. Class criterion not met: TGI below 30 µM.

Check out these entries, answers already filled in.
INSERT INTO assay_data (structure_smiles, target, cat) VALUES
  ('O=[N+]([O-])c1ccc(Oc2c(Cl)cc(S(=O)(=O)/N=C(\NO)Nc3ccc(Cl)cc3)cc2Cl)c(Cl)c1', 'BT-549 breast', 'criterion not met'),
  ('N=N/C(=C\c1c(O)[nH]c2ccccc12)c1ccccc1', 'BT-549 breast', 'criterion met'),
  ('COc1cc2c(cc1Cc1cccc(Cl)c1F)c(=O)c(C(=O)O)cn2[C@@H](CO)C(C)C', 'BT-549 breast', 'criterion not met'),
  ('COc1ccc2cc(C(=O)/C=C/c3ccc(N(C)C)cc3)ccc2c1', 'BT-549 breast', 'criterion met'),
  ('C=C1C(=O)O[C@H]2C[C@@H]1CC/C(C)=C/CC/C(C)=C/CC[C@@]2(C)O', 'BT-549 breast', 'criterion met');

Reported TGI at or above 30 µM? N=C(N)SCc1c2ccccc2c(CSC(=N)N)c2ccccc12 criterion met

Reported TGI at or above 30 µM? N/C(=N/N=C/c1ccccc1)N/N=C\c1ccccc1 criterion met

Reported TGI at or above 30 µM? Cc1ccc(-c2cc3c4c(nc5ccccc53)C(=O)c3cccnc3-c4n2)cc1 criterion met

Reported TGI at or above 30 µM? O=C1C=CC(=O)c2c1ccc1c3ccccc3n(-c3ccccc3)c21 criterion not met

Reported TGI at or above 30 µM? C/C(=N\NC(=S)N(C)C)c1nc2ncccc2[nH]1 criterion not met
